test: Inhibition of Bocillin FL binding to PBP1A in Pseudomonas aeruginosa PAO1 membranes
Below is a list of entries, each paired with its recorded IC50 value.

compound: C[C@@H](O)[C@H]1C(=O)N2C(C(=O)O)=C(S[C@@H]3CN[C@H](CNS(N)(=O)=O)C3)[C@H](C)[C@H]12
IC50: 0.5 µg/mL
--
compound: C[C@H]1[C@H](NC(=O)/C(=N\OC(C)(C)C(=O)O)c2csc(N)n2)C(=O)N1S(=O)(=O)O
IC50: 2 µg/mL
--
compound: C[C@@H](O)[C@H]1C(=O)N2C(C(=O)O)=C(SCCNC=N)C[C@H]12 [IMIPENEM ANHYDROUS]
IC50: 0.1 µg/mL
--
compound: C[C@@H](O)[C@H]1C(=O)N2C(C(=O)O)=C(S[C@@H]3CN[C@H](C(=O)N(C)C)C3)[C@H](C)[C@H]12
IC50: 0.5 µg/mL
--
compound: CC(C)(O/N=C(\C(=O)N[C@@H]1C(=O)N2C(C(=O)[O-])=C(C[n+]3ccccc3)CS[C@H]12)c1csc(N)n1)C(=O)O
IC50: 0.2 µg/mL

====

experiment: Inhibition of Bocillin FL binding to PBP1A in Pseudomonas aeruginosa 27853 membranes
measurement.type: log10 IC50 (log10 of the value in µg/mL)

compound: C[C@H]1[C@H](NC(=O)/C(=N\OC(C)(C)C(=O)O)c2csc(N)n2)C(=O)N1S(=O)(=O)O
recorded.value: 0.30

compound: C[C@@H](O)[C@H]1C(=O)N2C(C(=O)O)=C(S[C@@H]3CN[C@H](C(=O)N(C)C)C3)[C@H](C)[C@H]12
recorded.value: -0.22

compound: C[C@@H](O)[C@H]1C(=O)N2C(C(=O)O)=C(SCCNC=N)C[C@H]12 [IMIPENEM ANHYDROUS]
recorded.value: -1.00

compound: C[C@@H](O)[C@H]1C(=O)N2C(C(=O)O)=C(S[C@@H]3CN[C@H](CNS(N)(=O)=O)C3)[C@H](C)[C@H]12
recorded.value: -0.10

compound: CC(C)(O/N=C(\C(=O)N[C@@H]1C(=O)N2C(C(=O)[O-])=C(C[n+]3ccccc3)CS[C@H]12)c1csc(N)n1)C(=O)O
recorded.value: -0.52

====

assay: Inhibition of Bocillin FL binding to PBP1B in Pseudomonas aeruginosa 27853 membranes
Below is a list of entries, each paired with its recorded IC50 value.

molecule: C[C@@H](O)[C@H]1C(=O)N2C(C(=O)O)=C(S[C@@H]3CN[C@H](C(=O)N(C)C)C3)[C@H](C)[C@H]12
IC50: 0.6 µg/mL
--
molecule: CC(C)(O/N=C(\C(=O)N[C@@H]1C(=O)N2C(C(=O)[O-])=C(C[n+]3ccccc3)CS[C@H]12)c1csc(N)n1)C(=O)O
IC50: 1.6 µg/mL
--
molecule: C[C@@H](O)[C@H]1C(=O)N2C(C(=O)O)=C(S[C@@H]3CN[C@H](CNS(N)(=O)=O)C3)[C@H](C)[C@H]12
IC50: 0.6 µg/mL
--
molecule: C[C@@H](O)[C@H]1C(=O)N2C(C(=O)O)=C(SCCNC=N)C[C@H]12 [IMIPENEM ANHYDROUS]
IC50: 0.1 µg/mL
--
molecule: C[C@H]1[C@H](NC(=O)/C(=N\OC(C)(C)C(=O)O)c2csc(N)n2)C(=O)N1S(=O)(=O)O
IC50: 2 µg/mL

====

Below is a list of entries, each paired with its recorded IC50 value.
test: Inhibition of Bocillin FL binding to PBP3 in Pseudomonas aeruginosa 27853 membranes

compound: C[C@H]1[C@H](NC(=O)/C(=N\OC(C)(C)C(=O)O)c2csc(N)n2)C(=O)N1S(=O)(=O)O [AZTREONAM]
inequality.operator: <
IC50 / µg/mL: 0.02
--
compound: CC(C)(O/N=C(\C(=O)N[C@@H]1C(=O)N2C(C(=O)[O-])=C(C[n+]3ccccc3)CS[C@H]12)c1csc(N)n1)C(=O)O [CEFTAZIDIME]
inequality.operator: =
IC50 / µg/mL: 0.1
--
compound: C[C@@H](O)[C@H]1C(=O)N2C(C(=O)O)=C(SCCNC=N)C[C@H]12 [IMIPENEM ANHYDROUS]
inequality.operator: =
IC50 / µg/mL: 0.3
--
compound: C[C@@H](O)[C@H]1C(=O)N2C(C(=O)O)=C(S[C@@H]3CN[C@H](CNS(N)(=O)=O)C3)[C@H](C)[C@H]12 [DORIPENEM]
inequality.operator: =
IC50 / µg/mL: 0.06
--
compound: C[C@@H](O)[C@H]1C(=O)N2C(C(=O)O)=C(S[C@@H]3CN[C@H](C(=O)N(C)C)C3)[C@H](C)[C@H]12 [MEROPENEM]
inequality.operator: =
IC50 / µg/mL: 0.08

====

Below is a list of entries, each paired with its recorded IC50 value.
test: Inhibition of Bocillin FL binding to PBP1B in Pseudomonas aeruginosa PAO1 membranes
measurement.type: IC50 (µg/mL)

compound: C[C@@H](O)[C@H]1C(=O)N2C(C(=O)O)=C(S[C@@H]3CN[C@H](C(=O)N(C)C)C3)[C@H](C)[C@H]12
measurement.type: IC50
recorded.value: 0.5

compound: C[C@@H](O)[C@H]1C(=O)N2C(C(=O)O)=C(SCCNC=N)C[C@H]12 [IMIPENEM ANHYDROUS]
measurement.type: IC50
recorded.value: 0.2

compound: CC(C)(O/N=C(\C(=O)N[C@@H]1C(=O)N2C(C(=O)[O-])=C(C[n+]3ccccc3)CS[C@H]12)c1csc(N)n1)C(=O)O
measurement.type: IC50
recorded.value: 3

compound: C[C@@H](O)[C@H]1C(=O)N2C(C(=O)O)=C(S[C@@H]3CN[C@H](CNS(N)(=O)=O)C3)[C@H](C)[C@H]12
measurement.type: IC50
recorded.value: 0.6

compound: C[C@H]1[C@H](NC(=O)/C(=N\OC(C)(C)C(=O)O)c2csc(N)n2)C(=O)N1S(=O)(=O)O
measurement.type: IC50
recorded.value: 2

====

assay: Inhibition of Bocillin FL binding to PBP4 in Pseudomonas aeruginosa 27853 membranes
Below is a list of entries, each paired with its recorded IC50 value.

molecule: C[C@H]1[C@H](NC(=O)/C(=N\OC(C)(C)C(=O)O)c2csc(N)n2)C(=O)N1S(=O)(=O)O
IC50: > 4000 ng/mL
//
molecule: C[C@@H](O)[C@H]1C(=O)N2C(C(=O)O)=C(SCCNC=N)C[C@H]12 [IMIPENEM ANHYDROUS]
IC50: < 8 ng/mL
//
molecule: C[C@@H](O)[C@H]1C(=O)N2C(C(=O)O)=C(S[C@@H]3CN[C@H](CNS(N)(=O)=O)C3)[C@H](C)[C@H]12
IC50: < 8 ng/mL
